Test: Long-term stability test (25° C., RH60%), change in degradation product CNS-7054
Assay type: physicochemical
Details: in 3 months, sulfonate of the benzodiazepine derivative
TEST_READOUT: CNS-7054 increase, long-term experiment (25° C., RH60%)

MOLECULE: CCOC(=O)CCC1N=C(c2ccccn2)c2cc(Br)ccc2-n2c(C)cnc21.Cc1ccc(S(=O)(=O)O)cc1 (stereo not shown)
TEST_RESULT: Increased by 0.1%
//
MOLECULE: COC(=O)CCC1N=C(c2ccccn2)c2cc(Br)ccc2-n2c(C)cnc21.Cc1ccc(S(=O)(=O)O)cc1 (stereo not shown)
TEST_RESULT: Increased by 0.1%

* * *

Experiment: Long-term stability test (25° C., RH60%), change in degradation product CNS-7054
Assay type: physicochemical
Conditions: 6 months, after packaging, degradation product CNS-7054
TEST_READOUT: Change in CNS-7054, Long-term experiment (25° C., RH60%)

COMPOUND: CCOC(=O)CCC1N=C(c2ccccn2)c2cc(Br)ccc2-n2c(C)cnc21.Cl (stereo not drawn) [Ethyl, 4.5% glycine]
TEST_RESULT: Not increased
//
COMPOUND: CCOC(=O)CCC1N=C(c2ccccn2)c2cc(Br)ccc2-n2c(C)cnc21.Cl (stereo not drawn) [Ethyl, 4% alanine]
TEST_RESULT: Not increased
//
COMPOUND: COC(=O)CCC1N=C(c2ccccn2)c2cc(Br)ccc2-n2c(C)cnc21.Cl (stereo not drawn) [Methyl, 4% glycine]
TEST_RESULT: Not increased

Data provenance is patent US11708368B2.
